Substrate: C[C@H](CCC(=O)O)[C@H]1CC[C@H]2[C@@H]3C(=O)C[C@@H]4CC(=O)CC[C@]4(C)[C@H]3CC(=O)[C@]12C
Test: Enzyme-kinetic investigation of the 7β-HSDH mutants
Format: biochemical, Collinsella aerofaciens
Conditions: other: 0.5 mM NADH
readoutLabel: Vmax (µmol/min/mg)
// return numeric value only (unit: µmol/min/mg, not printed)

Example proteins with recorded Vmax:
| protein | readoutLabel | readingUnit | reportedResult |
| --- | --- | --- | --- |
| Collinsella aerofaciens 7β-HSDH mutant G39D, SEQ ID NO:37 (parent SEQ ID NO:2) (Collinsella aerofaciens ATCC 25986; G39D) (protein, made in house) MNLREKYGEWGLILGATEGVGKAFCEKIAAGGMNVVMVDRREEKLNVLAGEIRETYGVETKVVRADFSQPGAAETVFAATEGLDMGFMSYVACLHSFGKIQDTPWEKHEAMINVNVVTFLKCFHHYMRIFAAQDRGAVINVSSMTGISSSPWNGQYGAGKAFILKMTEAVACECEGTGVDVEVITLGTTLTPSLLSNLPGGPQGEAVMKIALTPEECVDEAFEKLGKELSVIAGQRNKDSVHDWKANHTEDEYIRYMGSFYRD | Vmax | µmol/min/mg | 2.9 |
| Collinsella aerofaciens 7β-HSDH mutant G39D R40V, SEQ ID NO:40 (parent SEQ ID NO:2) (Collinsella aerofaciens ATCC 25986; G39D/R40V) (protein, made in house) MNLREKYGEWGLILGATEGVGKAFCEKIAAGGMNVVMVDVREEKLNVLAGEIRETYGVETKVVRADFSQPGAAETVFAATEGLDMGFMSYVACLHSFGKIQDTPWEKHEAMINVNVVTFLKCFHHYMRIFAAQDRGAVINVSSMTGISSSPWNGQYGAGKAFILKMTEAVACECEGTGVDVEVITLGTTLTPSLLSNLPGGPQGEAVMKIALTPEECVDEAFEKLGKELSVIAGQRNKDSVHDWKANHTEDEYIRYMGSFYRD | Vmax | µmol/min/mg | 2.69 |
| Collinsella aerofaciens 7β-HSDH mutant G39D R40L, SEQ ID NO:38 (parent SEQ ID NO:2) (Collinsella aerofaciens ATCC 25986; G39D/R40L) (protein, made in house) MNLREKYGEWGLILGATEGVGKAFCEKIAAGGMNVVMVDLREEKLNVLAGEIRETYGVETKVVRADFSQPGAAETVFAATEGLDMGFMSYVACLHSFGKIQDTPWEKHEAMINVNVVTFLKCFHHYMRIFAAQDRGAVINVSSMTGISSSPWNGQYGAGKAFILKMTEAVACECEGTGVDVEVITLGTTLTPSLLSNLPGGPQGEAVMKIALTPEECVDEAFEKLGKELSVIAGQRNKDSVHDWKANHTEDEYIRYMGSFYRD | Vmax | µmol/min/mg | 1.6 |

Then there is this protein:
Which Vmax is listed for Collinsella aerofaciens 7β-HSDH mutant G39D R40I, SEQ ID NO:39 (parent SEQ ID NO:2) (Collinsella aerofaciens ATCC 25986; G39D/R40I) (protein, made in house) MNLREKYGEWGLILGATEGVGKAFCEKIAAGGMNVVMVDIREEKLNVLAGEIRETYGVETKVVRADFSQPGAAETVFAATEGLDMGFMSYVACLHSFGKIQDTPWEKHEAMINVNVVTFLKCFHHYMRIFAAQDRGAVINVSSMTGISSSPWNGQYGAGKAFILKMTEAVACECEGTGVDVEVITLGTTLTPSLLSNLPGGPQGEAVMKIALTPEECVDEAFEKLGKELSVIAGQRNKDSVHDWKANHTEDEYIRYMGSFYRD ? 4.64
